# system-name: PfCSP full length (Plasmodium falciparum (isolate NF54), UniProt P19597)
# Sequence (P19597 20-375): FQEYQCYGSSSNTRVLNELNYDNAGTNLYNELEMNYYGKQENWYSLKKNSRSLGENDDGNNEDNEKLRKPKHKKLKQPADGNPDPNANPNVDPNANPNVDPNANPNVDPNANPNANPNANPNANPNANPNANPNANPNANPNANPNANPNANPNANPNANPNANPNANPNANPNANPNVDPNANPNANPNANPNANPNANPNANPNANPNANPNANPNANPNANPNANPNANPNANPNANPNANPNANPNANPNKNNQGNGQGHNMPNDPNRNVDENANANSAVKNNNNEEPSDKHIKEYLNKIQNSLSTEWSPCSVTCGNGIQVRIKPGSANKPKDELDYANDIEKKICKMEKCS
# protocol-summary: ELISA AUC
measurement-label: binding score

{"binder": "Ky15.2 (antibody, V domains shown, peptides N-terminally acetylated and C-terminally amidated) VH: QVLLVESGGGVVQPGTSLRLSCVASGFSFSTYGMHWVRQSPGKGLEWVAIIWYDGGNKFYADSVQGRFTVSRDNSKNTLYLQMNSLRAEDTAVYYCAKAYRTSLDKKYGMDVWGQGTTVTVSS VL: DIQMTQSPSTLSASVGDRVTITCRASQSIASWLAWYQQKPGKAPKLLIYKASSLESGVPSRFSGSGSGTEFTLTISSLHPDDFATYFCQQFTSYWTFGQGTKVEIK", "endpoint-value": 2.4}
{"binder": "CL-510700 (antibody, V domains shown, peptides N-terminally acetylated and C-terminally amidated) VH: QVQLVESGGGVVQPGRSLRLSCAASGFTFSDFGMHWVRQTPGKGLEWVAIIWYDGSNKFYADSVKGRFTISRDNSKNTLFLQMNSLRAEDTAVYYCARSGVYYGSGSHFDYWGQGTLVTVSS VL: DIQMTQSPSTLSASVGDRVTITCRASQSISSWLAWYQLKPGKAPKLLIYKASNLETGVPLRFSGSGSGTEFTLTISSLQPDDFATYYCQQYNSYLTFGQGTKVEIK", "endpoint-value": 1.9}
{"binder": "CL-449007 (antibody, V domains shown, peptides N-terminally acetylated and C-terminally amidated) VH: QVQVVESGGGVVQPGRSLRLSCAASGFTFSNYGMHWVRQAPGKGLEWVAIIWYDGSHKFYANSVKGRFTISRDNSKNTLFLQMNSLRAEDTAVYYCARVGNGNSDWTDAFDIWGQGTMVTVSS VL: DIQMTQSPSTLSASVGDRVTITCRASQSINSWLAWYQQKPGKAPKLLIYKASSLESGVPSRFSGSGSGTEFTLTISSLQPDDFATYYCQQYNTYWTFGQGTKVEIK", "endpoint-value": 2.4}

Values were extracted from paper PMC10720262.
